Experiment: Cytotoxicity assay, MTT, mock-infected Vero-76
Assay type: cell-based
Settings: Cercopithecus aethiops, mock-infected Vero-76 cells; mock-infected Vero-76, MTT; value printed without *
measuredProperty: CC50 (µM)
Give the value in µM but do not write µM after it.

Example entries and their recorded answers appear below.
| smilesString | CC50 (µM) |
| --- | --- |
| CC(C)(C)c1ccc(-c2nc3cc(Cl)c(Cl)cc3[nH]2)cc1 | 9 |
| CC(C)(C)c1ccc(-c2nc3ccccc3[nH]2)cc1 | 46 |

Shift focus to the following entry.
Noted for CC(C)c1ccc(-c2nc3ccccc3[nH]2)cc1 : its CC50 reads 60
